These entries and their values trace back to paper PMC6271935.

# Tested on: Huh7.5 cells
# test protocol: Cytotoxicity in Huh7.5 cells (MTT)
# Type: cell-based, human
# details: 96 h
Entries and their TC50 (50% cytotoxic concentration), HCV
Respond numerically; units are µM and should not be typed.

{"compound": "Cc1ccc(CNc2ccc3cc[nH]c3c2)o1", "TC50 (50% cytotoxic concentration), HCV (µM)": 46.78}

What value of TC50 (50% cytotoxic concentration), HCV has been reported for the following compound? `Clc1ccc(CNc2ccc3ncoc3c2)s1`
45.78

What value of TC50 (50% cytotoxic concentration), HCV has been reported for the following compound? `COc1cccc(CNc2ccc3ncsc3c2)c1O`
126.59

What value of TC50 (50% cytotoxic concentration), HCV has been reported for the following compound? `O=[N+]([O-])c1ccc(CNc2ccc3ncsc3c2)cc1`
142.86

What value of TC50 (50% cytotoxic concentration), HCV has been reported for the following compound? `Cc1ccc(CNc2ccc3ncsc3c2)o1`
138.38

What value of TC50 (50% cytotoxic concentration), HCV has been reported for the following compound? `COc1cc(CNc2ccc3ncsc3c2)cc(Br)c1O`
108.82

What value of TC50 (50% cytotoxic concentration), HCV has been reported for the following compound? `Clc1ccc(CNc2ccc3cc[nH]c3c2)cc1`
15.88

What value of TC50 (50% cytotoxic concentration), HCV has been reported for the following compound? `Clc1ccc(CNc2ccc3ncsc3c2)s1`
38.24

What value of TC50 (50% cytotoxic concentration), HCV has been reported for the following compound? `C(=C\c1ccccc1)/CNc1ccc2ncsc2c1`
43.58

What value of TC50 (50% cytotoxic concentration), HCV has been reported for the following compound? `c1csc(CNc2ccc3ncsc3c2)c1`
153.72

What value of TC50 (50% cytotoxic concentration), HCV has been reported for the following compound? CCC[C@H](NC(=O)[C@@H]1[C@H]2CCC[C@H]2CN1C(=O)[C@@H](NC(=O)[C@@H](NC(=O)c1cnccn1)C1CCCCC1)C(C)(C)C)C(=O)C(=O)NC1CC1 [Telaprevir, telaprevir, reference compound]
32.12

###

# Test system: Influenza A/hanfang/359/95
# test protocol: microbe, parasite or virus in culture
# Type: cell-based
# details: Influenza A virus, MDCK
Entries and their IC50
Respond numerically; units are µM and should not be typed.

{"structure": "Cc1ccc(CNc2ccc3cc[nH]c3c2)s1", "recorded result": 11.8}
{"structure": "c1cnc2c(CNc3ccc4ncoc4c3)cccc2c1", "recorded result": 9.04}

Field: IC50 (Influenza A/hanfang/359/95). Entry: `C(=C\c1ccccc1)/CNc1ccc2ncsc2c1`
8.6

###

Entries and their TC50 (50% cytotoxic concentration), HCV
# Tested on: Huh7.5 cells
# test protocol: Cytotoxicity in Huh7.5 cells (MTT)
# Type: cell-based, human
# details: 96 h
# Procedure: The Huh7.5 cells (1 × 10^4 cells/well) were plated in 96-well plates. Six hours later the culture media was replaced with fresh medium containing the test compounds at various concentrations. Cytotoxicity was evaluated with the 3-(4,5-dimethylthiazol-2-yl)-2,5-diphenyltetrazolium bromide (MTT) assay after 96 h. Huh7.5 cells were seeded at a density of 3 × 10^4 cells/cm^2. […] Intracellular HCV RNA was quantified using a one-step real time RT-PCR kit (Invitrogen). […]

# example entries with known answers
{"molecule": "Cc1ccc(CNc2ccc3nc[nH]c3c2)o1 [4b]", "target under test": "Huh7.5 cells", "TC50 (50% cytotoxic concentration), HCV": ">200 µM"}
{"molecule": "O=[N+]([O-])c1ccc(CNc2ccc3ncoc3c2)cc1 [2b, Benzooxazol-6-yl-(4-nitrobenzyl)-amine]", "target under test": "Huh7.5 cells", "TC50 (50% cytotoxic concentration), HCV": ">200 µM"}

Proceed to the following item.
What value of TC50 (50% cytotoxic concentration), HCV has been reported for the following molecule? c1ncc(CNc2ccc3ncsc3c2)cn1 [3j]
>200 µM
